study-target: Polyunsaturated fatty acid 5-lipoxygenase (Rattus norvegicus, UniProt P12527)
Sequence (P12527 whole entry): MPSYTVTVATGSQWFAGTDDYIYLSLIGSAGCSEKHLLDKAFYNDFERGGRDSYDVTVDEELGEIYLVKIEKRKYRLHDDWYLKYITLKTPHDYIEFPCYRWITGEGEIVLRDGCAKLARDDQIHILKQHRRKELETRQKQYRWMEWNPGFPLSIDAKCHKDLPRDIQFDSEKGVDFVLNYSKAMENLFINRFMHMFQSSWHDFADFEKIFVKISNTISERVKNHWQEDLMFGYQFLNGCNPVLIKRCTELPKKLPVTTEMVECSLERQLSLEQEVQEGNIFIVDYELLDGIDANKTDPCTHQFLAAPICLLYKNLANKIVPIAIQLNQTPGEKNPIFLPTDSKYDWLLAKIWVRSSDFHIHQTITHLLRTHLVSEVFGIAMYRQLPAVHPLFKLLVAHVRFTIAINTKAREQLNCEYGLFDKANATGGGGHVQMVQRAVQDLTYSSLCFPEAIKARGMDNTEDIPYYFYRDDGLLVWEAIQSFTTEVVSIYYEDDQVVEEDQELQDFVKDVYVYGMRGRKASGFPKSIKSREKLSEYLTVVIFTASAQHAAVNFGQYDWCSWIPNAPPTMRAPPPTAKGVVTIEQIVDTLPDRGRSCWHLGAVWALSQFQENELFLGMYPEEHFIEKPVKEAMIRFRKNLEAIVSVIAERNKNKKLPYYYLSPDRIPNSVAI
procedure-summary: Inhibition of 5-lipoxygenase in rat RBL1 cells
Each record is given fulfilled if its reported IC50 is strictly below 10 µM. Records at or above 10 µM are given not fulfilled.

>>> print(df.to_string())
                    chemical_structure       category
0      COc1ccc(C)cc1C(=O)/C=C/c1ccccc1  not fulfilled
1  CCOc1ccc(OC)c(C(=O)/C=C/c2ccccc2)c1  not fulfilled
2     Cc1ccc(C)c(C(=O)/C=C/c2ccccc2)c1  not fulfilled
3     Cc1ccc(/C=C/C(=O)c2ccccc2)c(C)c1  not fulfilled
4       O=C(/C=C/c1ccc(Cl)cc1)c1ccccc1  not fulfilled

Now look at this entry.
## Task hey, is IC50 for `COc1cccc(OC)c1/C=C/C(=O)c1ccccc1` lower than 10 µM or not?
## Result not fulfilled

====

study-target: Polyunsaturated fatty acid 5-lipoxygenase (Rattus norvegicus, UniProt P12527)
procedure-summary: Inhibition of 5-lipoxygenase in rat RBL1 cells
Measured pIC50 by item
Please express pIC50 as -log10 of the molar concentration.

Below: 3 compounds and their reported pIC50.
In [3]: df
Out[3]:
                         chemical_structure  obs_value
0  O=C(/C=C/c1ccc([N+](=O)[O-])cc1)c1ccccc1       4.64
1      CCCCOc1ccc(O)c(C(=O)/C=C/c2ccccc2)c1       6.00
2         COc1ccc(/C=C/C(=O)c2ccccc2)c(O)c1       4.82

## Task Supply reported pIC50 belonging to this compound: `Cc1ccc(O)c(C(=O)/C=C/c2ccccc2)c1`
## Result 4.41

## Task Supply reported pIC50 belonging to this compound: `COc1ccc(/C=C/C(=O)c2ccccc2)cc1OC`
## Result 4.74

## Task Supply reported pIC50 belonging to this compound: `COc1cc(/C=C/C(=O)c2ccccc2)ccc1O`
## Result 5.05

## Task Supply reported pIC50 belonging to this compound: `COc1cccc(/C=C/C(=O)c2ccccc2)c1`
## Result 5.19

## Task Supply reported pIC50 belonging to this compound: `CC(C)Oc1ccc(/C=C/C(=O)c2ccccc2)cc1`
## Result 4.39

## Task Supply reported pIC50 belonging to this compound: `COc1ccc(/C=C/C(=O)c2ccccc2)cc1`
## Result 4.70

## Task Supply reported pIC50 belonging to this compound: `Cc1cccc(/C=C/C(=O)c2ccccc2)c1`
## Result 4.57

## Task Supply reported pIC50 belonging to this compound: `O=C(/C=C/c1ccccc1)c1ccccc1`
## Result 4.37

## Task Supply reported pIC50 belonging to this compound: `O=C(/C=C/c1ccccc1Cl)c1ccccc1`
## Result 4.04

====

study-target: Cyclooxygenase (Rattus norvegicus, UniProt P35355+Q63921)
Sequence (P35355 whole entry): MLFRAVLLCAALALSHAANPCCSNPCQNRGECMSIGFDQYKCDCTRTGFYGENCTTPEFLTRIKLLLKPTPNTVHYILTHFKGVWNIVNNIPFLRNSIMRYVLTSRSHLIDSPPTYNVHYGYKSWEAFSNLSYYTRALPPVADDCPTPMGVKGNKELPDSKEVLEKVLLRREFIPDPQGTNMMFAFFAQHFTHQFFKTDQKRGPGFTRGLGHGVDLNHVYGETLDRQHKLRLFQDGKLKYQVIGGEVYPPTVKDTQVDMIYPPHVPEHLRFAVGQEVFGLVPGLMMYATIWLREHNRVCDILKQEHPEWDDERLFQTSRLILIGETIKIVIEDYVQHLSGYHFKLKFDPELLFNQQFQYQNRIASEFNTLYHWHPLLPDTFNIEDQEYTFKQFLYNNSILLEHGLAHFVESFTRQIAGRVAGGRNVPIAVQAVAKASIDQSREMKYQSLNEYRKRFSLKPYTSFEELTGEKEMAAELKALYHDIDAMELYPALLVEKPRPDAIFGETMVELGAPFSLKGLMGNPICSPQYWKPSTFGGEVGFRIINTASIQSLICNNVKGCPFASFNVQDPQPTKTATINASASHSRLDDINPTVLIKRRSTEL
Sequence (Q63921 whole entry): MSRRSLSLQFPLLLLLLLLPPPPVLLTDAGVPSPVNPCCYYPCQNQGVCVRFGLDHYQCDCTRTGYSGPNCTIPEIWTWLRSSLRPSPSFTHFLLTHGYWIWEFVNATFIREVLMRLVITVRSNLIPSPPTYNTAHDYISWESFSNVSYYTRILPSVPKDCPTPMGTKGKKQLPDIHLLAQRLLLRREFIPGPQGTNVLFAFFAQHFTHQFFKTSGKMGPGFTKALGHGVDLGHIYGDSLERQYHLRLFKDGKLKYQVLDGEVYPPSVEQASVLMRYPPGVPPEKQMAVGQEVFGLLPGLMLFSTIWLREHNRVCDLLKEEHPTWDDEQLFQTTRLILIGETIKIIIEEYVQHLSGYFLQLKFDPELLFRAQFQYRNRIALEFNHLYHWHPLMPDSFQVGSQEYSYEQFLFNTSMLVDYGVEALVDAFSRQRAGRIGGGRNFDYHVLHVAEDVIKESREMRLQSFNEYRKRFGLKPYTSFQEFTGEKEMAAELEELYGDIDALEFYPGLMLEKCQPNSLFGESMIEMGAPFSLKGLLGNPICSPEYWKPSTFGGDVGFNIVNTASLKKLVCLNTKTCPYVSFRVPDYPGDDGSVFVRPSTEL
procedure-summary: Inhibition of cyclooxygenase in rat RBL1 cells
Format: cell-based
assay-context: rbl-1
Measured IC50 by item
Give just the number in µM; leave the unit off.

In [3]: df
Out[3]:
                           compound  obs_value
0  O=C(/C=C/c1ccc(O)c(O)c1)c1ccccc1      0.043

## Task Supply reported IC50 belonging to this compound: `COc1ccc(O)c(/C=C/C(=O)c2ccccc2)c1`
## Result 41

## Task Supply reported IC50 belonging to this compound: `O=C(/C=C/c1ccc(O)c(O)c1)c1ccccc1O`
## Result 0.023

## Task Supply reported IC50 belonging to this compound: `COc1ccc(/C=C/C(=O)c2ccccc2)cc1`
## Result 20

## Task Supply reported IC50 belonging to this compound: `Cc1cc(C)c(/C=C/C(=O)c2ccccc2)c(C)c1`
## Result 400

## Task Supply reported IC50 belonging to this compound: `COc1ccc(/C=C/C(=O)c2ccccc2)cc1OC`
## Result 18

## Task Supply reported IC50 belonging to this compound: `COc1ccc(/C=C/C(=O)c2ccccc2)c(OC)c1`
## Result 10

## Task Supply reported IC50 belonging to this compound: `CCOc1ccc(OCC)c(C(=O)/C=C/c2ccccc2)c1`
## Result 2.4
